Recorded below: IC50, system BTK (Homo sapiens (Human), UniProt Q06187).
Counter-ions that a name gives are not always drawn.

{"Molecule": "CO[C@H]1CCN(c2cc3c(-c4ccc(CNC(=O)c5nc(C(C)(C)C)no5)c(C)c4)ncnn3c2)C1 (single isomer, unassigned)", "Measure": "IC50", "Value": "≤ 1 nM"}
{"Molecule": "Cc1cc(-c2ncnn3cc(-c4cnn(C5COC5)c4)cc23)ccc1CNC(=O)c1noc(C(C)(C)C)n1", "Measure": "IC50", "Value": "≤ 1 nM"}
{"Molecule": "CC(C)(C)n1cc(C(=O)NCc2ccc(-c3ncnn4cc(N5CCOCC5)cc34)cc2Cl)nn1", "Measure": "IC50", "Value": "1 to 10 nM"}
{"Molecule": "CC(C)(C)c1noc(C(=O)NCc2ccc(-c3ncnn4cc(N5CCOCC5)cc34)cc2C(F)F)n1", "Measure": "IC50", "Value": "≤ 1 nM"}
{"Molecule": "COc1c(CNC(=O)c2nc(C(C)(C)C)no2)ccc(-c2ncnn3cc(N4CCOCC4)cc23)c1F", "Measure": "IC50", "Value": "≤ 1 nM"}

Report value only: IC50, BTK (Homo sapiens (Human), UniProt Q06187), CC(C)(C)c1nnc(C(=O)NCc2ccc(-c3ncnn4cc(C5=CCOCC5)cc34)cc2C(F)F)o1 1 to 10 nM

Identify measured IC50 obtained with BTK (Homo sapiens (Human), UniProt Q06187) for COC1CCN(c2cc3c(-c4ccc(CNC(=O)c5nc(C(C)(C)C)no5)c(C)c4)ncnn3c2)CC1 . ≤ 1 nM

Fill in IC50 for Cc1cc(-c2ncnn3cc(-c4cnn(CC(F)F)c4)cc23)ccc1CNC(=O)c1noc(C(C)(C)C)n1 [Example 10, trifluoroacetate] tested with BTK (Homo sapiens (Human), UniProt Q06187). ≤ 1 nM

Give the observed IC50 of CO[C@@H]1CCN(c2cc3c(-c4ccc(CNC(=O)c5nc(C(C)(C)C)no5)c(C)c4)ncnn3c2)C1 (single isomer, unassigned) for BTK (Homo sapiens (Human), UniProt Q06187). ≤ 1 nM

System BTK (Homo sapiens (Human), UniProt Q06187). Read-out IC50. Item Cc1c(CNC(=O)c2noc(C3(C)CC3)n2)ccc(-c2ncnn3cc(-c4cnn(C)c4)cc23)c1F [Example 42, hydrochloride] . Report value. ≤ 1 nM

Find IC50 for Cc1cc(-c2ncnn3cccc23)ccc1CNC(=O)c1noc(C(C)(C)C)n1 on BTK (Homo sapiens (Human), UniProt Q06187) and write it down. 1 to 10 nM

GET IC50 | system: BTK (Homo sapiens (Human), UniProt Q06187) | item: Cc1cc(-c2ncnn3cc(OC4CCOCC4)cc23)ccc1CNC(=O)c1noc(C(C)(C)C)n1 1 to 10 nM

# assay system BTK (Homo sapiens (Human), UniProt Q06187): give IC50 of Cc1cc(-c2ncnn3cc(-c4cn[nH]c4)cc23)ccc1CNC(=O)c1noc(C(C)(C)C)n1 ≤ 1 nM

Output reported IC50 of the molecule Cc1cc(-c2ncnn3cc(N4CCOC(C)(C)C4)cc23)ccc1CNC(=O)c1noc(C(C)(C)C)n1 [Example 78, hydrochloride] on BTK (Homo sapiens (Human), UniProt Q06187). ≤ 1 nM

----------
Record: IC50 reported on BTK (Homo sapiens (Human)).
Sequence (Q06187 whole entry): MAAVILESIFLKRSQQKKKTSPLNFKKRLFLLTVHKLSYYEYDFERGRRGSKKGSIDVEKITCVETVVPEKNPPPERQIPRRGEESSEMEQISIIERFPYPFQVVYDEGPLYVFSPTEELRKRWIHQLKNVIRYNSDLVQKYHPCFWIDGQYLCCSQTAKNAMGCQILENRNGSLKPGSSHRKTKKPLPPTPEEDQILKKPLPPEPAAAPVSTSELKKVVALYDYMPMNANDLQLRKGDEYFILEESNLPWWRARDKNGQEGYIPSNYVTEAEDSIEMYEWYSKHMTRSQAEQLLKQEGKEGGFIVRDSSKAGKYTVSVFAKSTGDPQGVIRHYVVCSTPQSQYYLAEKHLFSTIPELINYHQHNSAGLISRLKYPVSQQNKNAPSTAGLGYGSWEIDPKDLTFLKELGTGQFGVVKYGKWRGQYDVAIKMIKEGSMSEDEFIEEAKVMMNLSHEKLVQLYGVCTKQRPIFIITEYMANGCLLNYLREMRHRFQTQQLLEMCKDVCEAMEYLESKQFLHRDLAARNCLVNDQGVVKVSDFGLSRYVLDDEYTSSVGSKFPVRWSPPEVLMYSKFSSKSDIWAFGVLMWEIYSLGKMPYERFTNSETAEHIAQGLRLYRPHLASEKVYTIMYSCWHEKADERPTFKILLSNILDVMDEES

{"Compound structure string": "Cc1cc(-c2ncnn3cc(-c4cnn(C)c4)cc23)ccc1[C@@H](C)NC(=O)c1nc(C(C)(C)C)no1", "Measured on": "BTK (Homo sapiens (Human))", "IC50": "≤ 1 nM"}
{"Compound structure string": "Cc1cc(-c2ncnn3cc(N4CCN(C)CC4)cc23)ccc1CNC(=O)c1nc(C(C)(C)C)no1", "Measured on": "BTK (Homo sapiens (Human))", "IC50": "≤ 1 nM"}
{"Compound structure string": "COc1c(CNC(=O)c2ccn(C(C)(C)C)n2)ccc(-c2ncnn3cc(N4CCOCC4)cc23)c1F", "Measured on": "BTK (Homo sapiens (Human))", "IC50": "1 to 10 nM"}

Moving on to the next compound.
Give reported IC50 value for Cc1cc(-c2ncnn3cc(-c4cnn(C)c4)cc23)ccc1CNC(=O)c1noc(C(C)(C)CF)n1 ≤ 1 nM
